# testSystem: T1, soluble human CD3 epsilon chain (human, UniProt P07766 23-126)
# T1 construct: also called CD3ε
# T1 sequence (P07766 23-126 limits assumed): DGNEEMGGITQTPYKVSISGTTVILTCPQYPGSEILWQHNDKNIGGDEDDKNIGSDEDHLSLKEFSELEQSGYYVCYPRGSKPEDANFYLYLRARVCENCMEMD
# methodDescription: SPR
What Kd was measured for each of the following?
Write the quantity with the unit trailing the number.

Challenge: Record request: Kd value, item TR01H082-E22Hh/none-Hi-Kn010G3/TR01L020-k0 (antibody, V domains shown, one-arm) VH: QVQLVESGGGLVQPGRSLRLSCAASGFTFSNAWMHWVRQAPGKGLEWVAQIKDKSQNYATYYAESVKGRFTISRDDSKNSLYLQMNSLKTEDTAVYYCRYVHYAAGYGVDAWGQGTTVTVSS VL: DIVMTQSPLSLPVTPGEPASISCQASESPVHSNRNTYIQWYLQKPGQSPQLLIYKVSNRFSGVPDRFSGSGSGTDFTLKISRVEAEDVGVYYCYQGTQVPYTFGQGTKLEIK
Response given: 0.106 µM

Challenge: Same again, this time with TR01H040-E22Hh/none-Hi-Kn010G3/L0011-k0 (antibody, V domains shown, one-arm) VH: QVQLVESGGGLVQPGRSLRLSCAASGFTFSNAWMHWVRQAPGKGLEWVAQIKDKSQNYATYYAESVKGRFTISRADSKNSIYLQMNSLKTEDTAVYYCRYVHYSASYGVDAWGQGTTVTVSS VL: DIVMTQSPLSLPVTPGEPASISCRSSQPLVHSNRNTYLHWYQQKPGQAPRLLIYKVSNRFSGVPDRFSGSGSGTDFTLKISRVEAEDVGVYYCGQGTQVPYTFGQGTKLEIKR
Response given: 0.0348 µM

Challenge: Same again, this time with TR01H018-E22Hh/none-Hi-Kn010G3/L0000-k0 (antibody, one-arm) VH: QVQLVESGGGLVQPGGSLRLSCAASGFTFSNAWMHWVRQAPGKGLEWVAQIKGKSNNYATYYAESVKGRFTISRADSKNSIYLQMNSLKTEDTAVYYCRYVHYSASYGVDIWGQGTTVTVSS light: DIVMTQSPLSLPVTPGEPASISCRSSQSLVHSNRNTYLHWYQQKPGQAPRLLIYKVSNRFSGVPDRFSGSGSGTDFTLKISRVEAEDVGVYYCGQGTQVPYTFGQGTKLEIKRTVAAPSVFIFPPSDEQLKSGTASVVCLLNNFYPREAKVQWKVDNALQSGNSQESVTEQDSKDSTYSLSSTLTLSKADYEKHKVYACEVTHQGLSSPVTKSFNRGEC
Response given: 0.0693 µM
